assay: inhibition of NOD2-driven NF-kB reporter – cell-based, luminescence, uHTS, HEK293 (AID 1566); details: HEK293 NOD2/NF-kB luciferase reporter, at 4 µM
Screen size: about 290,000 compounds; about 1,800 (0.62%) were called active. Cut-off read from the data, not from the text of the source: active = inhibition above about 50%; inactive = the rest. The sample as a whole holds a higher share of actives than the screen did.
Entry note: the call must match one of class 1 (active), class 0 (inactive)

- Molecule: "COc1ccc(-n2c3c(cc(C(=O)NCc4ccco4)c2=O)C(=O)CC(C)(C)C3)cc1"
  Label value: "class 0"

In: Call for entry COc1ccc(/C=C2\SC(=S)N(CCC(=O)NC3C=CS(=O)(=O)C3)C2=O)cc1 (stereo not drawn) :
Out: class 0

In: And COc1ccc(Nc2nc3ccccc3nc2NS(=O)(=O)c2cccs2)cc1 ?
Out: class 0

In: Please answer likewise for COc1ccc(-c2nnc(SCC(=O)NC3CCCCC3)o2)cc1
Out: class 0

----------
assay: inhibition of NOD2-driven NF-kB reporter – cell-based, luminescence, uHTS, HEK293 (AID 1566); conditions: HEK293 NOD2/NF-kB luciferase reporter, at 4 µM
Among all 290,000 compounds or so, about 1,800 (0.62%) were called active. No stated cut-off is given here; in the data, active means inhibition above about 50%; inactive means the rest. The full list was thinned out, with actives kept by preference.
Answer with one of the outcomes given here: active, inactive

A selection of reference data follows.
- Molecule: "O=C(c1ccncc1)c1ccc(NS(=O)(=O)c2ccc(Br)s2)cc1"
  Label value: "inactive"
- Molecule: "COc1ccc(-n2cnnc2SCC(=O)c2ccc(S(=O)(=O)N3CCOCC3)cc2)cc1"
  Label value: "inactive"
- Molecule: "C[C@H]1O[C@@H](O[C@H]2[C@@H](O)C[C@H](O[C@H]3[C@@H](O)C[C@H](O[C@H]4CC[C@@]5(C)[C@H](CC[C@@H]6[C@@H]5C[C@@H](O)[C@]5(C)[C@@H](C7=CC(=O)OC7)CC[C@]65O)C4)O[C@@H]3C)O[C@@H]2C)C[C@H](O)[C@@H]1O"
  Label value: "active"
- Molecule: "COc1ccc(N2CCN(CC(=O)NCc3ccccc3)CC2)cc1"
  Label value: "inactive"
- Molecule: "Cc1cccc(NC2=NCC(=O)N2CCc2ccccc2)c1"
  Label value: "inactive"

In: Returns: the outcome recorded for C=CCN=C1NN=C(c2cc(C)n(CC=C)c2C)CS1 in this assay.
Out: active

In: Another: C=CCN=C1NN=C(c2cc(C)n(CCOC)c2C)CS1
Out: active

----------
experiment: inhibition of NOD2-driven NF-kB reporter – cell-based, luminescence, uHTS, HEK293 (AID 1566); details: HEK293 NOD2/NF-kB luciferase reporter, at 4 µM
About 1,800 (0.62%) of roughly 290,000 compounds were called active. Rule as the data show it: active = inhibition above about 50%; inactive = the rest. This excerpt belongs to a sample that is enriched for actives.
Hi there, use one of these labels in your reply, thanks! active, inactive

Before answering, review these 5 worked examples.
- Molecule: "CCOC(=O)Cc1csc(NS(=O)(=O)c2cc(Cl)ccc2Cl)n1"
  Label value: "inactive"
- Molecule: "COc1ccc(-c2cc(=O)oc3c(C)c(OCC(=O)NCC4CCC(C(=O)O)CC4)ccc23)cc1 (configuration not stated)"
  Label value: "inactive"
- Molecule: "Cc1ccccc1C(=O)Oc1cc(N)n(S(=O)(=O)c2ccccc2)n1"
  Label value: "inactive"
- Molecule: "Cc1cc(/C=c2\\sc3nc4ccccc4n3c2=O)c(C)n1-c1ccc(C(=O)O)cc1"
  Label value: "inactive"
- Molecule: "CC(=O)c1sc(-c2ccc(F)cc2F)nc1C"
  Label value: "inactive"

In: Please state the recorded outcome for this molecule: CCN1CCN(C2=C(NS(=O)(=O)c3ccc(C)cc3)C(=O)c3ccccc3C2=O)CC1
Out: inactive

In: Try the molecule COc1cc(OC)cc(C(=O)N[C@H](C(=O)NCc2ccco2)C(C)C)c1
Out: inactive

In: Would you kindly repeat that for OCC[C@@H]1C[C@H](O)[C@@H](O)[C@]2(Cc3ccccc3CCO2)O1 ?
Out: inactive

In: One more molecule: CCCN1C2CCCC1CC(NC(=O)C1CCCCC1)C2 (configuration not stated)
Out: inactive

In: # repeat for CCO[C@@H]1OC(C(=O)NCc2ccccc2)=C[C@H](c2ccc(Br)cc2)[C@H]1CCCO
Out: inactive

In: Item: Cc1nc2sc(C(c3ccc(Cl)cc3)N3CCN(C(=O)c4ccco4)CC3)c(O)n2n1 (configuration not stated)
Out: inactive

In: Subsequent entry: CCCCCc1ccc(-c2ccc(/C=C/C(N)=O)cc2)nc1
Out: inactive

In: What would you report for CC(OC(=O)C1CCN(S(=O)(=O)c2ccc(Cl)cc2)CC1)C(=O)N1CCc2ccccc21 (configuration not stated) ?
Out: inactive

In: Cool, now Cc1cc(-c2ccccc2)nc(Cl)c1C#N
Out: inactive

In: Field entry: CCN1CCN(C2=C(NS(=O)(=O)c3ccc(Br)cc3)C(=O)c3ccccc3C2=O)CC1
Out: active

----------
// reported inhibition per item
assay: inhibition of NOD2-driven NF-kB reporter – cell-based, luminescence, uHTS, HEK293 (AID 1566); details: HEK293 NOD2/NF-kB luciferase reporter, at 4 µM, active compounds read high
Screen size: about 290,000 compounds; about 1,800 (0.62%) were called active. The sample as a whole holds a higher share of actives than the screen did.
Express the result in % but write the number alone.

Example cases with answers are listed next.
- Compound structure: "CCOc1ccc(C(=O)N/N=C(\\c2ccccc2)c2ccccn2)cc1"
  inhibition / %: -82
- Compound structure: "O=C(Nc1ccc2c(c1)OCO2)c1cc(C2CC2)on1"
  inhibition / %: -108
- Compound structure: "S=C(Nc1cc(Cl)ccc1Cl)Nn1cnnc1"
  inhibition / %: 16.1
- Compound structure: "CC(=O)c1c(C)[nH]c(C(=O)OCC(=O)Nc2cc(Cl)ccc2[N+](=O)[O-])c1C"
  inhibition / %: 5.7
- Compound structure: "C/C(=N\\NC(=O)c1ccc(COc2ccccc2)cc1)c1ccncc1"
  inhibition / %: -1.5

In: Report inhibition for CC(=O)c1c(C)[nH]c(C(=O)OCC(=O)Nc2ccc(Cl)cc2[N+](=O)[O-])c1C please.
Out: 51

----------
Each entry below carries its reported inhibition.
test: inhibition of NOD2-driven NF-kB reporter – cell-based, luminescence, uHTS, HEK293 (AID 1566); conditions: HEK293 NOD2/NF-kB luciferase reporter, at 4 µM, active compounds read high
Among all 290,000 compounds or so, about 1,800 (0.62%) were called active. The list comes from a sample in which actives are over-represented; it also holds close analogues and randomly drawn compounds.
Give the value in % but do not write % after it.

// solved cases for inhibition follow
- Compound: "Cc1cc(C(=O)COC(=O)c2ccc(O)cc2)c(C)n1CC1CCCO1 (stereo unspecified)"
  Output unit: "%"
  Readout value: -113
- Compound: "COc1cc(C(=O)Nc2ccccc2N2CCOCC2)ccc1OCc1c(C)noc1C"
  Output unit: "%"
  Readout value: 1.5
- Compound: "CCOc1ccc(/C=C2\\SC(=S)NC2=O)cc1OC"
  Output unit: "%"
  Readout value: -106

In: Which inhibition value belongs to Cc1c(C#N)sc2nc(-c3ccccc3)nc(N3CCCC3)c12 ?
Out: -1.5

In: Next compound up: COc1ccc(-n2c(C)cc(/C=C3\SC(=S)NC3=O)c2C)cc1
Out: -195

In: Another compound: CC1=C(C)C(=O)C(N2CCOCC2)=CC1=O
Out: 12.8

In: Similarly, COCCn1c(C)cc(C(=O)COC(=O)c2ccccc2Br)c1C ?
Out: 68.7

In: Try the compound O=C(N/N=C/c1cc([N+](=O)[O-])ccc1O)NC12CC3CC(CC(C3)C1)C2
Out: 64

In: Repeat with COc1cc(/C=C2\SC(=O)N(CC(=O)Nc3cccc(C)c3)C2=O)cc([N+](=O)[O-])c1O
Out: 1.5

In: Field entry: CC(C)CCOc1cccc(OCC(=O)Nc2ccncc2)c1
Out: 60

In: Would you kindly repeat that for CC1CCc2c(sc3ncnc(N4CCOCC4)c23)C1 (stereo unspecified) ?
Out: 26

In: Request: COc1ccc(Nc2cc3n(c(=O)n2)CCc2cc(OC)c(OC)cc2-3)cc1
Out: -35.6

In: Thanks! And Cc1sc2ncnc(NC3CCN(Cc4ccccc4)CC3)c2c1C ?
Out: 36.9

In: Repeat with CN(Cc1cccnc1)C(=O)c1cc(COc2ccc3c(c2)CCCC3)on1
Out: -14.6

In: # repeat for Cc1cc(OCC(=O)Nc2ccncc2)ccc1Br
Out: 38.2

In: Same lookup for Cn1c(C(=O)N2CCN(c3ccc(F)cc3)CC2)cc2ccccc21 , please.
Out: 1.5

In: Next entry: CN1C(=O)/C(=C/c2ccc(OCc3ccc(C(=O)O)cc3)c(Cl)c2)NC1=S
Out: 33.9

In: Now this one: Cc1cccc(NS(=O)(=O)c2ccc(NC(=O)N3CCCCC3)cc2)c1
Out: 33.7
